# Tested on: MCF7 breast
# test_details: NCI tumour cell line growth inhibition, 48 h
Assign TGI to each entry below.

Exercise: Requested read-out: TGI. Entry: CCOc1ccc(-n2c(=O)c3nn4c(=O)n(-c5ccc(OCC)cc5)c(=O)c4nn3c2=O)cc1
Solution: > 100 µM

Exercise: Requested read-out: TGI. Entry: N#C/C(=C\c1ccc([N+](=O)[O-])cc1)n1nnc2cc(F)c(F)cc21
Solution: 3.4 µM

Exercise: Requested read-out: TGI. Entry: Nc1n[nH]c2ccc([C@H]3[C@@H]4C5CCC(C5)[C@@H]4c4c(ccc5[nH]ncc45)N3S(=O)(=O)C3CC3)cc12 (some centres undefined)
Solution: > 35.9 µM

Exercise: Requested read-out: TGI. Entry: Cc1cn2c(/C=N/NC3=NCCN3)c(-c3ccc(Cl)c([N+](=O)[O-])c3)nc2s1
Solution: > 50 µM

Exercise: Requested read-out: TGI. Entry: CC(=O)OC12c3ccccc3C(c3ccccc31)C1C(=O)N(c3ccccc3O)C(=O)C12 (centres undefined)
Solution: > 100 µM

Exercise: Requested read-out: TGI. Entry: N[C@@H]1c2c(Br)sc(Br)c2C(=O)[C@H]1Br
Solution: > 100 µM

Exercise: Requested read-out: TGI. Entry: CC1NC(=O)c2c(-c3ccccc3)nn(-c3ccccc3)c2NC1=O (centres undefined)
Solution: > 100 µM

Exercise: Requested read-out: TGI. Entry: CCOC(=O)c1csc(NC(=O)CCN2CCOCC2)n1
Solution: > 100 µM

Exercise: Requested read-out: TGI. Entry: CC1(C)CCCCC1/C=C/C(CC(O)(C(F)(F)F)C(F)(F)F)=N\Nc1ccc([N+](=O)[O-])cc1[N+](=O)[O-] (centres undefined)
Solution: 5.42 µM

Exercise: Requested read-out: TGI. Entry: COc1ccc(-c2c(C(C)=O)c(C)n(C3OC(COC(C)=O)C(OC(C)=O)C(OC(C)=O)C3OC(C)=O)c(=S)c2C#N)cc1 (centres undefined)
Solution: > 100 µM

Exercise: Requested read-out: TGI. Entry: CC(C)c1ccc2c(c1)CCC1C(C)(CN)CCCC21C (centres undefined)
Solution: 2.82 µM

Exercise: Requested read-out: TGI. Entry: Cc1cc(N(C)C)ccc1N=Nc1ccc2ncccc2c1
Solution: > 100 µM

Exercise: Requested read-out: TGI. Entry: CCOC(=O)c1cc2c(OC)cc(OC)cc2oc1=O
Solution: > 100 µM

Exercise: Requested read-out: TGI. Entry: O=C1NC(=N[C@@H]2C[C@H]2c2ccccc2)S/C1=C\c1ccc2ncccc2c1
Solution: 4.95 µM

Exercise: Requested read-out: TGI. Entry: Cn1c(=O)oc2cc(C(=O)CN3CCN(Cc4ccc5c(c4)OCO5)CC3)c(Cl)cc21
Solution: > 100 µM

Exercise: Requested read-out: TGI. Entry: Nc1cc2c(c3ccccc13)C(CCl)CN2C(=O)c1cc2cc(NC(=O)c3cc4ccccc4o3)ccc2[nH]1 (centres undefined)
Solution: < 0.11 µM

Exercise: Requested read-out: TGI. Entry: NS(=O)(=O)c1ccc(N=Nc2c(O)[nH]c3cccc(CCc4ccncc4)c23)cc1
Solution: > 25 µM

Exercise: Requested read-out: TGI. Entry: O=C(NC(=S)Nc1ccc(-c2nc3ccccc3[nH]2)cc1)c1ccc2ccccc2c1
Solution: > 100 µM

Exercise: Requested read-out: TGI. Entry: COc1cc2cc(Oc3ccc(NC(=O)Nc4ccc(F)c(C(F)(F)F)c4)cc3)c(C)nc2cc1OCCN1CCOCC1
Solution: 3.48 µM
